Numbers sourced from patent US20250277029A1.

The reader will find reported koff values listed item by item below.
Target: T1, huCB1 nanodisc (CB1-ND) (human, UniProt P21554 99-414)
T1 construct: The His-tagged CB1 is embedded in a POPC lipid nanodisc with MSP1D1 scaffold protein (molar ratio 480:8:1); also called huCB1-ND; #CB1-008
T1 sequence (P21554 99-414 limits assumed): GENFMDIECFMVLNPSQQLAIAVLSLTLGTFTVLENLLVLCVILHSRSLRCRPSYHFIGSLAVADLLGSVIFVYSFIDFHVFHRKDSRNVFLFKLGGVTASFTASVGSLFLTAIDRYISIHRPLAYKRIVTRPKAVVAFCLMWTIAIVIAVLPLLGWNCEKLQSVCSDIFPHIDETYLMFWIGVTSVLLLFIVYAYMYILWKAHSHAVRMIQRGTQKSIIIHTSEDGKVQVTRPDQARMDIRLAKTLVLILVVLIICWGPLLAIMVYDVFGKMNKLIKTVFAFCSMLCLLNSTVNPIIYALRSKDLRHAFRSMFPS
Experiment: Octet BLI; antibody captured by anti-human Fc, CB1-nanodisc in solution, 1:1 model
Number in s⁻¹, nothing else.

Some entries whose results are on file:
binder | unit symbol | koff
LIBC527814-1 (antibody, V domains shown, Expressed as IgG1 SEFL2 mAb) VH: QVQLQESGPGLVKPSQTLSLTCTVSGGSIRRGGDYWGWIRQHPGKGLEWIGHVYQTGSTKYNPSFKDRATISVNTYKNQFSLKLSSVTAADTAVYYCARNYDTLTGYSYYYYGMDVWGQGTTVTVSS VL: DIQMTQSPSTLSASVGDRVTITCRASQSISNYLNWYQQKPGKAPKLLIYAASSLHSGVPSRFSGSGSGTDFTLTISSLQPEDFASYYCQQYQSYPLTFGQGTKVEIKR | s⁻¹ | 0.00198
LIBC527997-1 (antibody, V domains shown, Expressed as IgG1 SEFL2 mAb) VH: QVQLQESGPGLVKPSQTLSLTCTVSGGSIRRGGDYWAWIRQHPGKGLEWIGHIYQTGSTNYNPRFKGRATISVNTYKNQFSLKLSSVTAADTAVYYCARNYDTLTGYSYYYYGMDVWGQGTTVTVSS VL: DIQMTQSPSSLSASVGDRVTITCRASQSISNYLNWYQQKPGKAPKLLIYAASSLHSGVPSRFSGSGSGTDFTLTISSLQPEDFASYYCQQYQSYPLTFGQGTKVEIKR | s⁻¹ | 0.00136
LIBC523661-1 (antibody, V domains shown, Expressed as IgG1 SEFL2 mAb) VH: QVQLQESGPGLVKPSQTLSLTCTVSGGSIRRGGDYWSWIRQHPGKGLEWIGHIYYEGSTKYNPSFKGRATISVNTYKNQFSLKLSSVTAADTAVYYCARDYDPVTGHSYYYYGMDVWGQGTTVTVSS VL: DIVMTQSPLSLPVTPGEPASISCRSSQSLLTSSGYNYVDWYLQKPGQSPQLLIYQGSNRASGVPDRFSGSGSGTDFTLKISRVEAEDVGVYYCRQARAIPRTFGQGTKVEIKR | s⁻¹ | 0.00275

For the next question, use this binder.
Specify reported koff for the binder shown: LIBC527919-1 (antibody, V domains shown, Expressed as IgG1 SEFL2 mAb) VH: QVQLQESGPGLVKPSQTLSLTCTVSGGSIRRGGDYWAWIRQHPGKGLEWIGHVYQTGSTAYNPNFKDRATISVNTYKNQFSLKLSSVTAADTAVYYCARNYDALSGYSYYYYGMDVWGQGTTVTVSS VL: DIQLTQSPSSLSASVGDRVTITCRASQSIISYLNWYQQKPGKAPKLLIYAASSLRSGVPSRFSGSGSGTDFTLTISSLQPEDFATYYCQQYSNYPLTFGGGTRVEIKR
0.00339
